Just for reference, patent US10155768B2 is where these values come from.

test: Evaluation of stability in liver microsome; conditions: mouse liver microsome 0.25 mg/mL, 1 μM test compound, 37° C. for 30 minutes
MEASUREMENT KIND: Remaining (%)

Param item = COCc1ccc(NC(=O)c2c(C(C)O)n(C3(C)CC3)c3ncnc(N)c23)cc1 (centres unmarked) [Example 204] ; retrieve measured Remaining (%). 83%

What about this molecule? COCc1ccc(NC(=O)c2cn(C(C)(C)CF)c3ncnc(N)c23)cc1F [Example 41] 56%

What about this molecule? COCc1ccc(NC(=O)c2c(C#CC(O)C3CC3)n(C3(C)CC3)c3ncnc(N)c23)cc1 (centres unmarked) [Example 104] 52%

What about this molecule? COCc1ccc(NC(=O)c2c(SC)n(C3(C)CC3)c3ncnc(N)c23)cc1 [Example 133] 70%

What about this molecule? COCCN(C)CC#Cc1c(C(=O)Nc2ccc(COC)cc2)c2c(N)ncnc2n1C1(C)CC1 [Example 197] 52%

What about this molecule? COCc1ccc(NC(=O)c2c(-c3ccc(CO)nc3)n(C3(C)CC3)c3ncnc(N)c23)cc1 [Example 179] 85%

What about this molecule? COCc1ccc(NC(=O)c2c(C#CCN3CCN(C)CC3)n(C3(C)CC3)c3ncnc(N)c23)cc1 [Example 132] 77%

What about this molecule? COCc1ccc(NC(=O)c2c(OCC(C)(C)OC)n(C3(C)CC3)c3ncnc(N)c23)cc1 [Example 137] 53%

What about this molecule? C=C(C)c1c(C(=O)Nc2ccc(COC)cc2)c2c(N)ncnc2n1C1(C)CC1 [Example 149] 62%

What about this molecule? COCc1ccc(NC(=O)c2cn(C3(C4CC4)CC3)c3ncnc(N)c23)cc1 [Example 49] 67%

What about this molecule? COCc1ccc(NC(=O)c2c(C#Cc3ccsc3)n(C3(C)CC3)c3ncnc(N)c23)cc1 [Example 176] 70%

What about this molecule? COCc1ccc(NC(=O)c2c(-c3ccc(O)cc3)n(C3(C)CC3)c3ncnc(N)c23)cc1 [Example 148] 61%

What about this molecule? COCc1ccc(NC(=O)c2c(C#CCC(C)O)n(C3(C)CC3)c3ncnc(N)c23)cc1 (centres unmarked) [Example 188] 68%

What about this molecule? COCc1ccc(NC(=O)c2c(C#Cc3cncc(F)c3)n(C3(C)CC3)c3ncnc(N)c23)cc1 [Example 175] 66%

What about this molecule? COCc1ccc(NC(=O)c2c(C#CCN3CCCC3)n(C3(C)CC3)c3ncnc(N)c23)cc1 [Example 88] 59%

What about this molecule? COCc1ccc(NC(=O)c2c(C#CC3(O)CCCC3)n(C3(C)CC3)c3ncnc(N)c23)cc1 [Example 131] 55%

What about this molecule? COCc1ccc(NC(=O)c2c(C#Cc3cccnc3)n(C3(C)CC3)c3ncnc(N)c23)cc1 [Example 94] 60%

What about this molecule? COCc1ccc(NC(=O)c2c(C#CCC3(O)COC3)n(C3(C)CC3)c3ncnc(N)c23)cc1 [Example 125] 74%

What about this molecule? COCc1ccc(NC(=O)c2c(C#CC(C)(C)O)n(C3(C)CC3)c3ncnc(N)c23)cc1 [Example 174] 72%

What about this molecule? COCc1ccc(NC(=O)c2c(C#CC(C)(C)N)n(C3(C)CC3)c3ncnc(N)c23)cc1 [Example 134] 79%

What about this molecule? COCc1ccc(NC(=O)c2c(-c3ccc(F)nc3)n(C3(C)CC3)c3ncnc(N)c23)cc1 [Example 190] 58%

What about this molecule? COCc1ccc(NC(=O)c2c(C#CC3(O)CCOCC3)n(C3(C)CC3)c3ncnc(N)c23)cc1 [Example 185] 80%

What about this molecule? COCc1ccc(NC(=O)c2cn(C3(CF)CC3)c3ncnc(N)c23)cc1 [Example 45] 66%

What about this molecule? COCc1ccc(NC(=O)c2c(C#CCN3CC[S+]([O-])CC3)n(C3(C)CC3)c3ncnc(N)c23)cc1 [Example 178] 88%

What about this molecule? COCc1ccc(NC(=O)c2c(-c3ccc(NC(C)=O)nc3)n(C3(C)CC3)c3ncnc(N)c23)cc1 [Example 147] 68%

What about this molecule? COCc1ccc(NC(=O)c2c(-c3cnn(C)c3)n(C3(C)CC3)c3ncnc(N)c23)cc1 [Example 150] 78%

What about this molecule? COCc1ccc(NC(=O)c2c(OCC3CCOC3)n(C3(C)CC3)c3ncnc(N)c23)cc1 (centres unmarked) [Example 101] 68%

What about this molecule? COCc1ccc(NC(=O)c2c(C#Cc3cccc(F)c3)n(C3(C)CC3)c3ncnc(N)c23)cc1 [Example 130] 84%

What about this molecule? COCc1ccc(NC(=O)c2cn(C(C)(C)C)c3ncnc(N)c23)cc1 [Example 2] 64%

What about this molecule? COCc1ccc(NC(=O)c2c(F)n(C3(C)CC3)c3ncnc(N)c23)cc1 [Example 69] 69%

What about this molecule? COCc1ccc(NC(=O)c2c(-c3cncnc3)n(C3(C)CC3)c3ncnc(N)c23)cc1 [Example 194] 67%

What about this molecule? [2H]C([2H])([2H])OCc1ccc(NC(=O)c2cn(C(C)(C)C)c3ncnc(N)c23)cc1 [Example 35] 58%

* * *

assay: Evaluation of stability in liver microsome; settings: mouse liver microsome 0.25 mg/mL, 1 μM test compound, 37° C. for 30 minutes
Kindly note that classification relies on Remaining (%) with these boundaries: bucket 1 = under 60%, bucket 2 = from 60% up to 70%, bucket 3 = 70% and over

Category of "COCc1ccc(NC(=O)c2c(C#CCN3CCOCC3)n(C3(C)CC3)c3ncnc(N)c23)cc1F" , please. bucket 3

What about this compound? "COCc1ccc(NC(=O)c2c(C#CCC3CCOCC3)n(C3(C)CC3)c3ncnc(N)c23)cc1" bucket 1

What about this compound? "COCc1ccc(NC(=O)c2c(C#Cc3cnc4ccoc4c3)n(C3(C)CC3)c3ncnc(N)c23)cc1" bucket 3

What about this compound? "COCc1ccc(NC(=O)c2c(C#CCN(C)C)n(C3(C)CC3)c3ncnc(N)c23)cc1" bucket 1

What about this compound? "COCc1ccc(NC(=O)c2c(-c3ccc(N4CCN(C)CC4)cc3)n(C3(C)CC3)c3ncnc(N)c23)cc1" bucket 3

What about this compound? "COCc1ccc(NC(=O)c2c(C#Cc3cnc4cccnn34)n(C3(C)CC3)c3ncnc(N)c23)cc1" bucket 2

What about this compound? "COCc1ccc(NC(=O)c2c(C#CCN3CCCCC3)n(C3(C)CC3)c3ncnc(N)c23)cc1" bucket 1

What about this compound? "COCc1ccc(NC(=O)c2cn(C3(C(F)F)CC3)c3ncnc(N)c23)cc1" bucket 2

What about this compound? "COCc1ccc(NC(=O)c2c(-c3cccnc3)n(C3(C)CC3)c3ncnc(N)c23)cc1" bucket 3

What about this compound? "COCc1ccc(NC(=O)c2c(C#Cc3ccn(C)n3)n(C3(C)CC3)c3ncnc(N)c23)cc1" bucket 2

What about this compound? "COCc1ccc(NC(=O)c2c(C#CCC3CCCCC3)n(C3(C)CC3)c3ncnc(N)c23)cc1" bucket 3

* * *

Field: Remaining (%). Provide a value for each of the compounds that follow.
assay: Evaluation of stability in liver microsome; details: mouse liver microsome 0.25 mg/mL, 1 μM test compound, 37° C. for 30 minutes
Value expressed in %; do not type the unit.

Param item = "COCc1ccc(NC(=O)c2c(/C=C/CO)n(C3(C)CC3)c3ncnc(N)c23)cc1" ; retrieve measured Remaining (%). 68

What about this compound? "COCc1ccc(NC(=O)c2c(OC[C@@H]3CCCO3)n(C3(C)CC3)c3ncnc(N)c23)cc1" 70

What about this compound? "COCc1ccc(NC(=O)c2c(C#Cc3ccc[nH]3)n(C3(C)CC3)c3ncnc(N)c23)cc1" 68

What about this compound? "COCc1ccc(NC(=O)c2c(OC[C@@H](C)OC)n(C3(C)CC3)c3ncnc(N)c23)cc1" 71

What about this compound? "COCc1ccc(NC(=O)c2c(C#CCC3(O)CCC3)n(C3(C)CC3)c3ncnc(N)c23)cc1" 60
